# Experiment Description: plasma pharmacokinetics in patients (HPLC–MS/MS, non-compartmental analysis)
# Assay type: in vivo, human
# Run Parameters: human, plasma, oral, Dose-level -1: dacomitinib 15 mg QD + PD-0325901 2 mg BID; Cycle 1 Day 1; n = 4; read-out: Cmax dacomitinib, mean (CV%)
Quantity Measured: Cmax (ng/mL)

[[record]]
structure_smiles = "COc1cc2ncnc(Nc3ccc(F)c(Cl)c3)c2cc1NC(=O)/C=C/CN1CCCCC1"
quantity_measured = "Cmax"
assay_result = 7.9


###

# Experiment Description: plasma pharmacokinetics in patients (HPLC–MS/MS, non-compartmental analysis)
# Type: in vivo, human
# Run Parameters: human, plasma, oral, 30 mg, All 30 mg doses; Cycle 2 Day 1 or last day of concomitant use; n =11; read-out: AUC0-24h dacomitinib, mean (CV%)
Quantity Measured: AUC(0-t)

[[record]]
structure_smiles = "COc1cc2ncnc(Nc3ccc(F)c(Cl)c3)c2cc1NC(=O)/C=C/CN1CCCCC1"
quantity_measured = "AUC(0-t)"
assay_result = "0.909 µg·h/mL"


###

# Experiment Description: plasma pharmacokinetics in patients (HPLC–MS/MS, non-compartmental analysis)
# Format: in vivo, human
# Run Parameters: human, plasma, oral, Dose-level 7: dacomitinib 30 mg (5/2) QD + PD-0325901 6 mg (5/2) BID; last day of concomitant use of both drugs; n = 2; read-out: tmax PD-0325901, mean
Quantity Measured: Tmax (h)

[[record]]
structure_smiles = "O=C(NOC[C@H](O)CO)c1ccc(F)c(F)c1Nc1ccc(I)cc1F"
units_text = "h"
assay_result = 4.5


###

# Experiment Description: plasma pharmacokinetics in patients (HPLC–MS/MS, non-compartmental analysis)
# Type: in vivo, human
# Run Parameters: human, plasma, oral, Dose-level 5: dacomitinib 15 mg QD + PD-0325901 6 mg BID; Cycle 2 Day 1; n = 5; read-out: Cmax dacomitinib, mean (CV%)
Quantity Measured: Cmax (ng/mL)

[[record]]
molecule = "COc1cc2ncnc(Nc3ccc(F)c(Cl)c3)c2cc1NC(=O)/C=C/CN1CCCCC1 [dacomitinib]"
units_text = "ng/mL"
assay_result = 37.3


###

# Experiment Description: plasma pharmacokinetics in patients (HPLC–MS/MS, non-compartmental analysis)
# Format: in vivo, human
# Run Parameters: human, plasma, oral, Dose-level 3: dacomitinib 15 mg QD + PD-0325901 4 mg BID; Cycle 1 Day 1; n = 2; read-out: tmax dacomitinib, mean
Quantity Measured: Tmax (h)

[[record]]
structure_smiles = "COc1cc2ncnc(Nc3ccc(F)c(Cl)c3)c2cc1NC(=O)/C=C/CN1CCCCC1"
assay_result = 12


###

# Experiment Description: plasma pharmacokinetics in patients (HPLC–MS/MS, non-compartmental analysis)
# Type: in vivo, human
# Run Parameters: human, plasma, oral, Dose-level 8: dacomitinib 30 mg (5/2) QD + PD-0325901 5 mg (5/2) BID; Cycle 1 Day 1; n = 4; read-out: AUC0-12h PD-0325901, mean (CV%)
Quantity Measured: AUC(0-t) (ng·h/mL)

[[record]]
structure_smiles = "O=C(NOC[C@H](O)CO)c1ccc(F)c(F)c1Nc1ccc(I)cc1F"
units_text = "ng·h/mL"
assay_result = 463


###

# Experiment Description: plasma pharmacokinetics in patients (HPLC–MS/MS, non-compartmental analysis)
# Type: in vivo, human
# Run Parameters: human, plasma, oral, Dose-level -1: dacomitinib 15 mg QD + PD-0325901 2 mg BID; Cycle 2 Day 1; n = 3; read-out: Cmax PD-0325901, mean (CV%)
Quantity Measured: Cmax (ng/mL)

[[record]]
structure_smiles = "O=C(NOC[C@H](O)CO)c1ccc(F)c(F)c1Nc1ccc(I)cc1F"
units_text = "ng/mL"
assay_result = 47.7


###

# Experiment Description: plasma pharmacokinetics in patients (HPLC–MS/MS, non-compartmental analysis)
# Assay type: in vivo, human
# Run Parameters: human, plasma, oral, Dose-level 8: dacomitinib 30 mg (5/2) QD + PD-0325901 5 mg (5/2) BID; last day of concomitant use of both drugs; n=2; read-out: tmax dacomitinib, mean
Quantity Measured: Tmax (h)

[[record]]
compound = "COc1cc2ncnc(Nc3ccc(F)c(Cl)c3)c2cc1NC(=O)/C=C/CN1CCCCC1 [dacomitinib]"
quantity_measured = "Tmax"
units_text = "h"
assay_result = 4.5


###

# Experiment Description: plasma pharmacokinetics in patients (HPLC–MS/MS, non-compartmental analysis)
# Assay type: in vivo, human
# Run Parameters: human, plasma, oral, Dose-level 2: dacomitinib 15 mg QD + PD-0325901 3 mg BID; Cycle 1 Day 1; n = 6; read-out: tmax dacomitinib, mean
Quantity Measured: Tmax (h)

[[record]]
structure_smiles = "COc1cc2ncnc(Nc3ccc(F)c(Cl)c3)c2cc1NC(=O)/C=C/CN1CCCCC1"
assay_result = 8.7


###

# Experiment Description: plasma pharmacokinetics in patients (HPLC–MS/MS, non-compartmental analysis)
# Assay type: in vivo, human
# Run Parameters: human, plasma, oral, Dose-level 7: dacomitinib 30 mg (5/2) QD + PD-0325901 6 mg (5/2) BID; last day of concomitant use of both drugs; n = 2; read-out: AUC0-24h dacomitinib, mean (CV%)
Quantity Measured: AUC(0-t) (ng·h/mL)

[[record]]
structure_smiles = "COc1cc2ncnc(Nc3ccc(F)c(Cl)c3)c2cc1NC(=O)/C=C/CN1CCCCC1"
quantity_measured = "AUC(0-t)"
assay_result = 658


###

# Experiment Description: plasma pharmacokinetics in patients (HPLC–MS/MS, non-compartmental analysis)
# Assay type: in vivo, human
# Run Parameters: human, plasma, oral, 30 mg, All 30 mg doses; Cycle 1 Day 1; n = 17; read-out: AUC0-24h dacomitinib, mean (CV%)
# Method: For pharmacokinetic analyses, serial blood samples were obtained from all patients prior to treatment administration on day 1, and 1, 2, 3, 4, 6, 8, 12, 24, 72 and 144 h after the first dose. […] Transitions from m/z 480 to 329 and m/z 489 to 255 were monitored for the detection of dacomitinib and PD-0325901, respectively. Stable isotope-labelled internal standards were used for the quantification. […]
Quantity Measured: AUC(0-t)

[[record]]
structure_smiles = "COc1cc2ncnc(Nc3ccc(F)c(Cl)c3)c2cc1NC(=O)/C=C/CN1CCCCC1"
assay_result = "250 ng·h/mL"


###

# Experiment Description: plasma pharmacokinetics in patients (HPLC–MS/MS, non-compartmental analysis)
# Format: in vivo, human
# Run Parameters: human, plasma, oral, Dose-level -1: dacomitinib 15 mg QD + PD-0325901 2 mg BID; Cycle 1 Day 1; n = 4; read-out: AUC0-12h PD-0325901, mean (CV%)
Quantity Measured: AUC(0-t)

[[record]]
molecule = "O=C(NOC[C@H](O)CO)c1ccc(F)c(F)c1Nc1ccc(I)cc1F [PD-0325901]"
assay_result = "160 ng·h/mL"


###

# Experiment Description: plasma pharmacokinetics in patients (HPLC–MS/MS, non-compartmental analysis)
# Assay type: in vivo, human
# Run Parameters: human, plasma, oral, Dose-level 1: dacomitinib 30 mg QD + PD-0325901 2 mg BID; Cycle 2 Day 1; n = 6; read-out: AUC0-24h dacomitinib, mean (CV%)
# Experimental: For pharmacokinetic analyses, serial blood samples were obtained from all patients prior to treatment administration on day 1, and 1, 2, 3, 4, 6, 8, 12, 24, 72 and 144 h after the first dose. […] Transitions from m/z 480 to 329 and m/z 489 to 255 were monitored for the detection of dacomitinib and PD-0325901, respectively. Stable isotope-labelled internal standards were used for the quantification. […]
Quantity Measured: AUC(0-t) (ng·h/mL)

[[record]]
structure_smiles = "COc1cc2ncnc(Nc3ccc(F)c(Cl)c3)c2cc1NC(=O)/C=C/CN1CCCCC1"
quantity_measured = "AUC(0-t)"
assay_result = 888


###

# Experiment Description: plasma pharmacokinetics in patients (HPLC–MS/MS, non-compartmental analysis)
# Assay type: in vivo, human
# Run Parameters: human, plasma, oral, Dose-level 8: dacomitinib 30 mg (5/2) QD + PD-0325901 5 mg (5/2) BID; Cycle 1 Day 1; n = 4; read-out: Cmax PD-0325901, mean (CV%)
# Description: For pharmacokinetic analyses, serial blood samples were obtained from all patients prior to treatment administration on day 1, and 1, 2, 3, 4, 6, 8, 12, 24, 72 and 144 h after the first dose. […] Transitions from m/z 480 to 329 and m/z 489 to 255 were monitored for the detection of dacomitinib and PD-0325901, respectively. Stable isotope-labelled internal standards were used for the quantification. […]
Quantity Measured: Cmax (ng/mL)

[[record]]
structure_smiles = "O=C(NOC[C@H](O)CO)c1ccc(F)c(F)c1Nc1ccc(I)cc1F"
assay_result = 134


###

# Experiment Description: plasma pharmacokinetics in patients (HPLC–MS/MS, non-compartmental analysis)
# Assay type: in vivo, human
# Run Parameters: human, plasma, oral, Dose-level 4: dacomitinib 15 mg QD + PD-0325901 5 mg BID; Cycle 2 Day 1; n = 3; read-out: Cmax dacomitinib, mean (CV%)
Quantity Measured: Cmax (ng/mL)

[[record]]
structure_smiles = "COc1cc2ncnc(Nc3ccc(F)c(Cl)c3)c2cc1NC(=O)/C=C/CN1CCCCC1"
quantity_measured = "Cmax"
units_text = "ng/mL"
assay_result = 33.5

